Values compiled from ChEMBL document CHEMBL3580662.

# assayOverview: Ratio of Cmax in brain to Cmax in plasma of Balb/C mouse at 20 mg/kg, po
# Assay type: ADME, organism-based
# conditionsUsed: brain and plasma, read-out: BPR

| smilesNotation | Kp |
| --- | --- |
| O=C(O)CN1CCN(c2cc(-c3cnc4ccc(N5CCC[C@@H]5c5cccc(F)c5)nn34)ccn2)CC1 | 0.8 |
| OC1CCN(c2cc(-c3cnc4ccc(N5CCC[C@@H]5c5cccc(F)c5)nn34)ccn2)CC1 | 0.2 |

====

# assayOverview: AUC in Wistar rat at 10 mg/kg, po
# Type: ADME, organism-based
# conditionsUsed: in vivo
reportedMetric: AUC (µM·h)

| smilesNotation | number |
| --- | --- |
| OC1CCN(c2cc(-c3cnc4ccc(N5CCC[C@@H]5c5cccc(F)c5)nn34)ccn2)CC1 | 1.88 |

====

Reported values of clearance for individual entries
# assayOverview: Plasma clearance in Sprague-Dawley rat at 3 mg/kg, iv and 10 mg/kg, po
# Assay type: ADME, organism-based

| smilesNotation | clearance, mL/min/kg |
| --- | --- |
| O=C(O)CN1CCN(c2cc(-c3cnc4ccc(N5CCC[C@@H]5c5cccc(F)c5)nn34)ccn2)CC1 | 45.5 |
| OC1CCN(c2cccc(-c3cnc4ccc(N5CCC[C@@H]5c5cccc(F)c5)nn34)n2)CC1 | 56.9 |

====

Reported bioavailability by item:
# assayOverview: Oral bioavailability in Sprague-Dawley rat at 10 mg/kg
# Type: ADME, organism-based
# conditionsUsed: in vivo

| smilesNotation | bioavailability |
| --- | --- |
| OC1CCN(c2cccc(-c3cnc4ccc(N5CCC[C@@H]5c5cccc(F)c5)nn34)n2)CC1 | 10% |
| O=C(O)CN1CCN(c2cc(-c3cnc4ccc(N5CCC[C@@H]5c5cccc(F)c5)nn34)ccn2)CC1 | 26% |

====

# assayedTarget: Tyrosine-protein kinase JAK2 (Homo sapiens, UniProt O60674)
# Sequence (O60674 whole entry, looked up, the tested form may be a part): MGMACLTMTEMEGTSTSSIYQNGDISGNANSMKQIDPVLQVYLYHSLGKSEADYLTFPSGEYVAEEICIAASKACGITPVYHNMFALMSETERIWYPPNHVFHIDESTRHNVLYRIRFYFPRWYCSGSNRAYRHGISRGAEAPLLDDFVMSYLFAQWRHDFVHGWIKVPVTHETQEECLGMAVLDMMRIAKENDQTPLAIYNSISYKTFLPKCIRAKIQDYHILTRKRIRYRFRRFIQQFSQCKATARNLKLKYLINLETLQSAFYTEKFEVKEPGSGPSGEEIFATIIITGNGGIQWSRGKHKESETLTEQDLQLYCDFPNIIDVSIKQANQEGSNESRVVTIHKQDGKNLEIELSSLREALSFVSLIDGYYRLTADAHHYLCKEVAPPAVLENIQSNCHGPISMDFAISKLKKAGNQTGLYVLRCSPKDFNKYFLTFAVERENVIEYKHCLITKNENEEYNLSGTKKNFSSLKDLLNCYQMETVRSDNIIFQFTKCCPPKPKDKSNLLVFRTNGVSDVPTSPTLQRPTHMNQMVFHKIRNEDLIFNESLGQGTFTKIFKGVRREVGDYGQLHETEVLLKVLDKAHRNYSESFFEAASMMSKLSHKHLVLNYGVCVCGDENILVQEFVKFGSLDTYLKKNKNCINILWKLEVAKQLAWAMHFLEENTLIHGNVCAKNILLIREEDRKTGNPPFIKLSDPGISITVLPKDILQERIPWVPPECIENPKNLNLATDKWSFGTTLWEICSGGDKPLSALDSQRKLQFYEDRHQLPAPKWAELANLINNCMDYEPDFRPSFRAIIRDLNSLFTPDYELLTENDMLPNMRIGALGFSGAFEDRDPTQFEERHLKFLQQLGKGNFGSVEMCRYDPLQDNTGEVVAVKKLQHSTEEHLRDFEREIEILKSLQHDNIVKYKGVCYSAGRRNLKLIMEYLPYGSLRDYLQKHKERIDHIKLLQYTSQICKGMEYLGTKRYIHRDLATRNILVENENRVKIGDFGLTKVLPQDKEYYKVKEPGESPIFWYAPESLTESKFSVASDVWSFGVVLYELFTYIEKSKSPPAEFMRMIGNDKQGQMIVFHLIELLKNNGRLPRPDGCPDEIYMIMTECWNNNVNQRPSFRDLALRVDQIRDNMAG
# assayOverview: Inhibition of Tel-fused JAK2 (unknown origin) expressed in mouse BA/F3 cells after 48 hrs by luciferase reporter gene assay in absence of recombinant mouse IL3
# conditionsUsed: baf3
reportedMetric: IC50 (µM)

| smilesNotation | reportedMetric | number |
| --- | --- | --- |
| N#Cc1ccc(-c2cnc3ccc(NCc4ccccc4)nn23)cc1 | IC50 | 4.7 |
| Fc1cccc([C@H]2CCCN2c2ccc3ncc(-c4ccccn4)n3n2)c1 | IC50 | 6.7 |
| O=C(O)CN1CCN(c2cc(-c3cnc4ccc(N5CCC[C@@H]5c5cccc(F)c5)nn34)ccn2)CC1 | IC50 | 2.7 |
| OC1CCN(c2cc(-c3cnc4ccc(N5CCC[C@@H]5c5cccc(F)c5)nn34)ccn2)CC1 | IC50 | 5.6 |

====

# assayedTarget: BDNF/NT-3 growth factors receptor (Homo sapiens)
# Sequence (Q16620 whole entry): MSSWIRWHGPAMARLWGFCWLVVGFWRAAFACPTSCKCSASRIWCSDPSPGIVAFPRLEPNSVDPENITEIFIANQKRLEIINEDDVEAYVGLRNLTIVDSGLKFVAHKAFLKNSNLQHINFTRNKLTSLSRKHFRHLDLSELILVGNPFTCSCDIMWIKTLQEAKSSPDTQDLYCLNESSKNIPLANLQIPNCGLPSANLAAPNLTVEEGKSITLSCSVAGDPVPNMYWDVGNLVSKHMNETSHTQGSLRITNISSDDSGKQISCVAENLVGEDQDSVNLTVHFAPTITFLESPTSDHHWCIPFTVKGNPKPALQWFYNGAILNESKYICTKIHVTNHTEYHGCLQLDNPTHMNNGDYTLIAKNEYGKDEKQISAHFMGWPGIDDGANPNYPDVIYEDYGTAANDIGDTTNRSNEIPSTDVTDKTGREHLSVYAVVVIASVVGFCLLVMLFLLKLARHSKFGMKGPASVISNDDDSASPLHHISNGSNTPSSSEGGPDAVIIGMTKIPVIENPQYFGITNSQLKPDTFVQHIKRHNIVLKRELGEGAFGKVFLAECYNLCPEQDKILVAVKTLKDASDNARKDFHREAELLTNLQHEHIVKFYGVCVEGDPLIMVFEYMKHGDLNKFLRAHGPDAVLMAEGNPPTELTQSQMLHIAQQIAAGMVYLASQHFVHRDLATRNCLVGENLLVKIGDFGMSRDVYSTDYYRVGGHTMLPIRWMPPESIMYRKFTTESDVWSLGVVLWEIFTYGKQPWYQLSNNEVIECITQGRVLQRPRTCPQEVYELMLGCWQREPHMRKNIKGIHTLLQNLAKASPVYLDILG
reportedMetric: IC50 (µM)

| smilesNotation | assayedTarget | reportedMetric | number |
| --- | --- | --- | --- |
| N#Cc1ccc(-c2cnc3ccc(NCc4ccccc4)nn23)cc1 | BDNF/NT-3 growth factors receptor (Homo sapiens) | IC50 | 0.083 |

====

The entries below come with measured pIC50 values attached.
# assayOverview: Cytotoxicity against wild type mouse BA/F3 cells assessed as inhibition of cell proliferation after 48 hrs by luciferase reporter gene assay in presence of recombinant mouse IL3
# Format: functional, cell-based
# conditionsUsed: BaF3, 48 h
pIC50: −log10 of the molar value.
reportedMetric: pIC50

| compound | reportedMetric | readoutQualifier | number |
| --- | --- | --- | --- |
| O=C(O)CN1CCN(c2cc(-c3cnc4ccc(N5CCC[C@@H]5c5cccc(F)c5)nn34)ccn2)CC1 | pIC50 | = | 5.32 |
| N#Cc1ccc(-c2cnc3ccc(N4CCC[C@H]4c4cccc(F)c4)nn23)cc1 | pIC50 | = | 5.03 |
| OCc1ccc(-c2cnc3ccc(NCc4cccc(F)c4)nn23)cc1 | pIC50 | = | 5.72 |
| N#Cc1ccc(-c2cnc3ccc(N4CCCCC4c4cccc(F)c4)nn23)cc1 (racemic) | pIC50 | < | 5.00 |
| COc1ccccc1CNc1ccc2ncc(-c3ccc(C#N)cc3)n2n1 | pIC50 | = | 6.00 |
| OC1CCN(c2cccc(-c3cnc4ccc(N5CCC[C@@H]5c5cccc(F)c5)nn34)n2)CC1 | pIC50 | < | 5.00 |
| N#Cc1ccc(-c2cnc3ccc(N4CCOCC4c4cccc(F)c4)nn23)cc1 (racemic) | pIC50 | < | 5.00 |
